Tested on: PAK4
Conditions: concentration: 1 μM, replicates: in singlicate; n = 1;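 further: KINOMEscan kinase panel screen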
Reported metric: %Inh (%)
Give a bare numeral; the unit % is implied.

Prompt line: Give PAK4 %Inh for Cc1ccc(NC(=O)c2ccc(Cl)c(Cl)c2)cc1-c1ccc(C(=O)Nc2ccncc2)cc1
Response line: 0

Prompt line: For the record Cl.Cl.NCC(NC(=O)c1cc(-c2cccnc2)c(-c2ccnc3[nH]ccc23)s1)c1ccccc1 (stereo not drawn) , what value of %Inh is listed for PAK4?
Response line: 0

Prompt line: For PAK4, provide %Inh of CC(C)c1nc(-c2cccc(NS(=O)(=O)c3c(F)cccc3F)c2)c(-c2ccnc(Nc3ccc(N4CCOCC4)nc3)n2)s1.Cl please.
Response line: 0

Prompt line: Form field - read-out: %Inh; system: PAK4; submitted item: CN(C)c1ncnc2nc[nH]c12
Response line: 6

Prompt line: # value lookup — system PAK4, readout %Inh, item CCNc1nccc(-c2c(-c3ccc(F)cc3)ncn2C2CCN(C)CC2)n1
Response line: 2

Prompt line: Quick check: %Inh on PAK4, item CSc1ccc(NC2=C(c3ccc(Cl)cc3)C(=O)NC2=O)cc1 ?
Response line: 2

Prompt line: Hi! What's the reported %Inh for CN(c1ccc(NC(=O)N2CCN(CCCN3CCOCC3)CC2)cc1)c1ccnc(Nc2ccc(CS(C)(=O)=O)cc2)n1.Cl on PAK4?
Response line: 0

Prompt line: Kindly state the measured %Inh obtained for O=C(Nc1n[nH]c2nc(-c3ccccc3)ccc12)C1CC1 with PAK4.
Response line: 0

Prompt line: Find the measured %Inh: item Cn1cc(-c2ccc3c(c2)CCN3C(=O)Cc2cc(F)cc(F)c2F)c2c(N)ncnc21 , target or system PAK4.
Response line: 0

Prompt line: Item CCNC(=O)/C=C/c1n[nH]c2cc(Sc3ccccc3C(=O)NC)ccc12 with PAK4 - %Inh?
Response line: 0

Prompt line: Request - read-out %Inh | tested on PAK4 | molecule O=C(Nc1n[nH]c2nc(-c3ccccc3O)ccc12)C1CC1
Response line: 33

Prompt line: Form field: %Inh recorded for COc1cccc(-c2nc(-c3ccccc3)[nH]c2-c2ccncc2)c1 with PAK4 (enter value)
Response line: 0

Prompt line: # get_value(readout= %Inh, system= PAK4) for Cn1cc(-c2ccc3c(c2)CCN3C(=O)Cc2cc(F)cc(C(F)(F)F)c2)c2c(N)ncnc21
Response line: 2

Prompt line: Item COc1ccc(NC(=O)c2ccoc2)cc1-c1ccc(C(=O)NCC2CC2)cc1 with PAK4 - %Inh?
Response line: 0

Prompt line: Value wanted: %Inh (PAK4) of entry Cc1cccc(Nc2nc(NCCN)ncc2C(N)=O)c1
Response line: 93

Prompt line: Give recorded %Inh with PAK4 for the following molecule: COc1cc(Nc2nccc(N3CCC(NC(=O)Nc4ccc5c(c4)OCO5)C3)n2)cc(OC)c1OC (stereo not drawn)
Response line: 0

Prompt line: Given the entry COc1ccc(C2=C(Nc3cccc(O)c3)C(=O)NC2=O)cc1 , what %Inh was observed with PAK4?
Response line: 0

Prompt line: What is its %Inh for PAK4? Entry: NCCC(NC(=O)c1cc(Br)c(-c2ccnc3[nH]ccc23)s1)c1ccccc1.O=C(O)C(F)(F)F.O=C(O)C(F)(F)F (stereo not drawn)
Response line: 74

* * *

System: ERK1
Construct: gene MAPK3
Conditions: concentration: 1 μM, replicates: in singlicate; n = 1
For each record, write down the corresponding %Inh.
Write down the numeric answer in % and omit the unit.

Prompt line: Which measured %Inh value corresponds to Cc1ccc(C)c(NC(=O)Nc2ccc(C)c(-c3ccc(C(=O)Nc4ccncc4)cc3)c2)c1 ?
Response line: 0

Prompt line: // query %Inh value for entry Cc1cccc(Nc2nc(N[C@H]3CCCC[C@H]3N)ncc2C(N)=O)c1.Cl
Response line: 8

Prompt line: Dear colleague, I am looking for the recorded %Inh of the following compound: Cc1cc(-c2c(-c3ccc(F)cc3)ncn2CCCN2CCOCC2)nc(N)n1
Response line: 4

Prompt line: Fill in the blank: the reported %Inh of COC(=O)Nc1nc2ccc(Oc3ccc(CC(=O)Nc4cc(C(F)(F)F)ccc4F)cc3)cc2[nH]1 is ____.
Response line: 0

Prompt line: State the recorded %Inh for this entry: N#CC1(c2cccc(C(=O)Nc3cccc(Oc4ccc5nc(NC(=O)C6CC6)sc5n4)c3)c2)CC1
Response line: 0

Prompt line: Please look up its %Inh: CN(c1ccc(NC(=O)N2CCN(CCCN3CCOCC3)CC2)cc1)c1ccnc(Nc2ccc(CS(C)(=O)=O)cc2)n1.Cl
Response line: 0

Prompt line: State the recorded %Inh for this entry: Nc1ncc(-c2cn[nH]c2)c2scc(-c3ccc4c(c3)CCN4C(=O)Cc3ccccc3)c12
Response line: 3

Prompt line: Which value of %Inh has been reported for O=C(Nc1n[nH]c2nc(-c3cccc(O)c3)ccc12)C1CC1 in the records?
Response line: 0

Prompt line: # lookup: %Inh of O=C1NC(=O)C(c2ccccc2Cl)=C1Nc1cccc(Cl)c1
Response line: 10

Prompt line: # get_value(readout='%Inh', item= COc1cccc(CC(=O)N2CCc3cc(-c4cn(C)c5ncnc(N)c45)ccc32)c1 )
Response line: 6

Prompt line: Entry O=C(Nc1n[nH]c2nc(-c3ccccc3O)ccc12)C1CC1 has what %Inh?
Response line: 0

Prompt line: Find the recorded %Inh belonging to COc1cc(Nc2nccc(N3CCC(NS(=O)(=O)c4ccc(NC(C)=O)cc4)CC3)n2)cc(OC)c1OC and report it.
Response line: 0

Prompt line: // lookup %Inh for Cc1ccc(NC(=O)c2ccc(Cl)c(Cl)c2)cc1-c1ccc(C(=O)Nc2ccncc2)cc1
Response line: 5

Prompt line: # input compound: O=C(Nc1n[nH]c2nc(-c3ccccc3)ccc12)C1CC1 ; wanted: its %Inh
Response line: 0

Prompt line: I'd like to know its %Inh. The compound in question is Cc1ccc(O)cc1Nc1ccnc2ccc(C(C)(C)C)cc12
Response line: 2

Prompt line: Would you kindly share the measured %Inh for O=C(Nc1c(F)cccc1F)c1cc(C(=O)c2ccccc2F)c[nH]1 ?
Response line: 8

Prompt line: // %Inh lookup, key: Cc1ccc(Nc2ccnc(Nc3ccc(C)c(F)c3)n2)cc1O.Cl
Response line: 0

Prompt line: Entry under review: Fc1cc(Cl)ccc1Nc1ccnc2cc(-c3ccc(CN4CCOCC4)o3)ccc12 . Reported %Inh?
Response line: 12

* * *

Test system: CSNK1A1
Details: concentration: 1 μM, replicates: in singlicate; n = 1
Reported metric: %Inh (%)
Quick reminder: number only, in %, skip the unit.

Prompt line: Endpoint output: %Inh of Cc1ccc(C)c(NC(=O)Nc2ccc(C)c(-c3ccc(C(=O)Nc4ccncc4)cc3)c2)c1 [GSK1398473] . Value?
Response line: 0

Prompt line: Query (compound): Cl.Cl.NCC(NC(=O)c1cc(-c2cccnc2)c(-c2ccnc3[nH]ccc23)s1)c1ccccc1 (stereo not shown) [GSK1323434] ; field requested: %Inh
Response line: 91.5

Prompt line: Can you look up the measured %Inh of Nc1ncnc2scc(-c3ccc(NC(=O)Cc4cc(F)ccc4F)cc3)c12.O=C(O)C(F)(F)F [SB-731254-M] for me?
Response line: 15

Prompt line: // %Inh lookup, key: Cc1ccc(NC(=O)c2cccc(N3CCCCC3)c2)cc1-c1ccc(C(=O)NCC2CC2)cc1 [GSK1917008]
Response line: 20

Prompt line: # get_value(readout='%Inh', item= O=C(Nc1n[nH]c2cc(-c3cccs3)ccc12)C1CC1 [SB-731284] )
Response line: 20

Prompt line: Given Fc1cc(Cl)ccc1Nc1ccnc2cc(-c3ccc(CN4CCSCC4)o3)ccc12 [GW560106] , state its recorded %Inh.
Response line: 0

Prompt line: Requested field: %Inh. Item: COc1cc(Nc2nccc(N3CCC(NC(=O)Nc4ccc5c(c4)OCO5)C3)n2)cc(OC)c1OC (stereo not shown) [GSK1379766]
Response line: 0

* * *

Test system: IRAK1
Settings: concentration: 1 μM, replicates: in singlicate; n = 1
Kindly state %Inh for each of the entries shown.
Output spec: scalar in %, unitless text.

Prompt line: Requested field: %Inh. Item: O=C(Nc1n[nH]c2cc(-c3cccs3)ccc12)C1CC1
Response line: 35

Prompt line: Reported %Inh for CS(=O)(=O)c1cccc(CNc2nc(Nc3ccc4c(c3)CCC(=O)N4)ncc2C(F)(F)F)c1 : what is it?
Response line: 0

Prompt line: Recorded %Inh of Cc1ccc(NC(=O)c2ccnc(N3CCCCC3)c2)cc1-c1ccc(C(=O)NCC2CC2)cc1 , please.
Response line: 0

Prompt line: Can you look up the measured %Inh of COc1cc(Nc2nccc(N3CCC(NS(=O)(=O)c4ccc(NC(C)=O)cc4)CC3)n2)cc(OC)c1OC for me?
Response line: 74

Prompt line: May I ask what %Inh has been recorded for CN(C)CCNS(=O)(=O)c1ccc(-c2ccnc3[nH]ccc23)cc1 ?
Response line: 55

Prompt line: // returns reported %Inh for input CN(c1ccc(F)c(NC(=O)c2cccc(OC(C)(C)C#N)c2Cl)c1)c1ccc2nc(NC(=O)C3CC3)sc2n1
Response line: 0

Prompt line: What value of %Inh has been reported for the following compound? Cl.Cl.NCC(NC(=O)c1cc(-c2cccnc2)c(-c2ccnc3[nH]ccc23)s1)c1ccccc1 (centres unmarked)
Response line: 76

Prompt line: What does the data say about its %Inh? Entry: Nc1ncnc2scc(-c3ccc(NC(=O)Cc4cc(F)ccc4F)cc3)c12.O=C(O)C(F)(F)F
Response line: 0
